Test: self-splicing fitness, log relative to wild type (ln ratio); higher = more splicing; Tetrahymena group I intron in knt gene, E. coli kanamycin selection, DiMSum; sequences stand for … in CUCUCU…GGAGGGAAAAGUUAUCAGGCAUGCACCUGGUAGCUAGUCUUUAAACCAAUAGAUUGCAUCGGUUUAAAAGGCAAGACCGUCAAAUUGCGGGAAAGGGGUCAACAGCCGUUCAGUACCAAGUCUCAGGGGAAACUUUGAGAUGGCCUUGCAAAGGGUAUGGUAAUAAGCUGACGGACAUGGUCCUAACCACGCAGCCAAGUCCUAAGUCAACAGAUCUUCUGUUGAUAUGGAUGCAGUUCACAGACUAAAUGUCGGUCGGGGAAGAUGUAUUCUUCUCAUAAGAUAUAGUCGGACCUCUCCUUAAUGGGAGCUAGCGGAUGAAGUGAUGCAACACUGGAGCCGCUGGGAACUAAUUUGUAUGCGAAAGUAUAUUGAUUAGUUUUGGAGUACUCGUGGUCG;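 further: selection with 25 µg/mL kanamycin versus none on LB agar overnight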
Conditions: 37 °C
readout.type: self-splicing fitness (ln)
Please give the numeric answer without any surrounding text.

Would you please look over these solved cases?
sequence.content | self-splicing fitness (ln)
UCACAGCAAUAUUACGUCAG | -0.829
GAGGAGCAAUAUUACGCGAG | -2.99

[in] Record request: self-splicing fitness (ln) value, item GAUAAGCAAUAUUACGAAGA
[out] -1.7

[in] Record request: self-splicing fitness (ln) value, item ACACAGCAAUAUUACGGCUC
[out] -0.461

[in] Record request: self-splicing fitness (ln) value, item AUCCAGCAAUAUUACGACGU
[out] 0.696

[in] Record request: self-splicing fitness (ln) value, item CUCAAGCAAUAUUACGUAGU
[out] -1.91

---

Test: self-splicing fitness, log relative to wild type (ln ratio); higher = more splicing; Tetrahymena group I intron in knt gene, E. coli kanamycin selection, DiMSum; sequences stand for … in CUCUCU…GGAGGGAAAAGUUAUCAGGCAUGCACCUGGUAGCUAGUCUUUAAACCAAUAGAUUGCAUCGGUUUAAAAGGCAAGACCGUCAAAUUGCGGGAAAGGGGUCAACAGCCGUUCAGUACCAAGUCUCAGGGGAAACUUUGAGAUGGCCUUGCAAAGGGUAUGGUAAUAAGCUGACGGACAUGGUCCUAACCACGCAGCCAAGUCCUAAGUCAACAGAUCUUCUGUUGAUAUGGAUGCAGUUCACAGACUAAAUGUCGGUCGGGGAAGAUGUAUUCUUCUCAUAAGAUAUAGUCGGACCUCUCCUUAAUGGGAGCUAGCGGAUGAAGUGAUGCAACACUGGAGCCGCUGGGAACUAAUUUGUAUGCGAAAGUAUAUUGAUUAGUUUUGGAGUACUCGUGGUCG
Conditions: 30 °C
readout.type: self-splicing fitness (ln)
Please give the numeric answer without any surrounding text.

sequence.content | measured.value
GAUUAGCAAUAUUACGGGCG | -1.63
GUUAAGCAAUAUUACGAUAC | -1.34
AAAAAGCAAUAUUACGUUGG | -3.28
CUAAAGCAAUAUUACGCGCC | -2.84
GAUCAGCAAUAUUACGUCUG | -2.63

[in] Record request: self-splicing fitness (ln) value, item AUCGAGCAAUAUUACGUGUU
[out] -2.9

[in] Record request: self-splicing fitness (ln) value, item AACAAGCAAUAUUACGGUCC
[out] -1.36

[in] Record request: self-splicing fitness (ln) value, item CCCGAGCAAUAUUACGUGUG
[out] -3.24
